# assay-setup: in dichloromethane, 298.15 K
quantity-kind: solubility (mole fraction)
Give your answer as a number; write no unit.

q: Could you share which solubility (mole fraction) value was measured for "Oc1ccc(/C=C/c2cc(O)cc(O)c2)cc1" ?
a: 2.53e-06

###

# assay-setup: in ethanol, 293.15 K
quantity-kind: solubility (mole fraction)
Give your answer as a number; write no unit.

q: Could you share which solubility (mole fraction) value was measured for "Oc1ccc(/C=C/c2cc(O)cc(O)c2)cc1" ?
a: 0.0236

###

# assay-setup: in dichloromethane, 293.15 K
quantity-kind: solubility (mole fraction)

q: Could you share which solubility (mole fraction) value was measured for "Oc1ccc(/C=C/c2cc(O)cc(O)c2)cc1" ?
a: 2e-06
